- measured_target: human TLR9 (Homo sapiens, UniProt Q9NR96)
- Construct: host or cells: HEK-Blue cells
- Sequence (Q9NR96 26-1032): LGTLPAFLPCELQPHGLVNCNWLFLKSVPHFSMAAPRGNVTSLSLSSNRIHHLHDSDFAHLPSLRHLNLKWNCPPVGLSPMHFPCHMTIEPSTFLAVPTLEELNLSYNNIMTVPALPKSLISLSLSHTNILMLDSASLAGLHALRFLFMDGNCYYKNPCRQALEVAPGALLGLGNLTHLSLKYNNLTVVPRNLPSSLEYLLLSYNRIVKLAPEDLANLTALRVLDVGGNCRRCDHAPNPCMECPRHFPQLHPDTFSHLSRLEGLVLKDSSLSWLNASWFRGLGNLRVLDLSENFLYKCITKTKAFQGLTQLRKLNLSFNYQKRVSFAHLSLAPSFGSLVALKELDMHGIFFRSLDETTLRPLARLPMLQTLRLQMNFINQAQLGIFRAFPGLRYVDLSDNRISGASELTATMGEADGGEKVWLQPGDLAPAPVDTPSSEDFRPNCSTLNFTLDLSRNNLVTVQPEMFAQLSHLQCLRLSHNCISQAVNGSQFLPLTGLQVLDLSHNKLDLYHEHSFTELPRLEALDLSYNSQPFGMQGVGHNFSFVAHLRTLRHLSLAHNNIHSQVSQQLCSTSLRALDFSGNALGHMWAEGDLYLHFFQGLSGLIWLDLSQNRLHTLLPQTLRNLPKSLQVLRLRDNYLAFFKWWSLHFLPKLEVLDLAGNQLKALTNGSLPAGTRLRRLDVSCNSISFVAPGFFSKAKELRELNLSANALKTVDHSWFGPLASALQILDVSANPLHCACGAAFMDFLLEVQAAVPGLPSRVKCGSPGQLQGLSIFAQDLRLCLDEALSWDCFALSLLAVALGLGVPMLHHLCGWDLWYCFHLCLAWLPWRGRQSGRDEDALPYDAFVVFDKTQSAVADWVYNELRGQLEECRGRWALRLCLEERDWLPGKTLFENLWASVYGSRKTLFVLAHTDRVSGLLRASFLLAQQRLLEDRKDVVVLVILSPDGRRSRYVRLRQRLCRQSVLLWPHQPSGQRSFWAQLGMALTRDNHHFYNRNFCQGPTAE
- assay_name: TLR9 inhibition reporter assay (HEK-Blue cells, SEAP reporter, ODN2006 stimulation)
- Assay type: cell-based
- condition_label: HEK-Blue cells overexpressing human TLR9, ODN2006 5 nM

molecule: CCc1c(-c2ccc(OC)c(OC)c2)[nH]c2ccc(C3CCN(C4CCN(CC(C)C)CC4)CC3)cc12 [Example 123]
IC50: 170 nM
--
molecule: COc1ccc(-c2[nH]c3ccc(C4CCN(C5CCN(C(C)C)CC5)CC4)cc3c2C)cc1OC [Example 10]
IC50: 202 nM
--
molecule: COc1ccc(-c2[nH]c3ccc(C4CCNCC4O)cc3c2C(C)C)cc1OC (single isomer, unassigned) [Example 318, 2,2,2-trifluoroacetate]
IC50: 11200 nM
--
molecule: COc1ccc(-c2[nH]c3ccc(C4CCN(C(=O)Cc5c[nH]c6ccccc56)CC4)cc3c2CC(F)(F)F)cc1OC [Example 332]
IC50: ≥ 50000 nM

----------
- measured_target: human TLR9 (Homo sapiens, UniProt Q9NR96)
- assay_name: TLR9 inhibition reporter assay (HEK-Blue cells, SEAP reporter, ODN2006 stimulation)
- condition_label: HEK-Blue cells overexpressing human TLR9, ODN2006 5 nM

compound: CNCCN1CCC(c2cc3c(C(C)C)c(-c4ccc(OC)c(OC)c4)[nH]c3cc2C)CC1 [Example 207]
measurement_units: nM
qualifier_symbol: =
IC50: 2290

compound: CCc1c(-c2ccc(OC)c(OC)c2)[nH]c2ccc(C3CCN(C(=O)c4ccncc4)CC3)cc12 [Example 183]
measurement_units: nM
qualifier_symbol: =
IC50: 10200

compound: COc1ccc(-c2[nH]c3ccc(C4CCN(C5CCN(CC(O)CO)CC5)CC4)cc3c2C)cc1OC (stereo not drawn) [Example 52]
measurement_units: nM
qualifier_symbol: =
IC50: 268

compound: COc1ccc(-c2[nH]c3ccc(C4CCN(CC(=O)N5CC[C@H](N(C)C)C5)CC4)cc3c2CC(F)(F)F)cc1OC [Example 374]
measurement_units: nM
qualifier_symbol: =
IC50: 252

compound: COc1ccc(-c2[nH]c3ccc(C4CCN(C(=O)CN5CCC[C@H](C(=O)N(C)C(C)C)C5)CC4)cc3c2C(C)C)cc1OC [Example 288]
measurement_units: nM
qualifier_symbol: =
IC50: 633

compound: COc1ccc(-c2[nH]c3ccc(C4CCN(C(=O)Cc5nnn[nH]5)CC4)cc3c2CC(F)(F)F)cc1OC [Example 341]
measurement_units: nM
qualifier_symbol: ≥
IC50: 50000

compound: COc1ccc(-c2[nH]c3ccc(C4CCN(Cc5cccc6cccnc56)CC4)cc3c2C)cc1OC [Example 36]
measurement_units: nM
qualifier_symbol: =
IC50: 348

compound: COc1ccc(-c2[nH]c3ccc(C4CCN(C5CCN(C6CCCC6)CC5)CC4)cc3c2C(C)C)cc1OC [Example 202]
measurement_units: nM
qualifier_symbol: =
IC50: 340

compound: CNCCN1CCC(c2ccc3[nH]c(-c4ccc(OC)c(OC)c4)c(C#N)c3c2)CC1 [Example 118]
measurement_units: nM
qualifier_symbol: =
IC50: 260

compound: CNCCCN1CCC(c2ccc3[nH]c(-c4ccc(OC)c(OC)c4)c(C)c3c2)CC1 [Example 102]
measurement_units: nM
qualifier_symbol: =
IC50: 382

compound: COc1ccc(-c2[nH]c3ccc(C4CCN(C(=O)CNCC(N)=O)CC4)cc3c2C(C)C)cc1OC [Example 228]
measurement_units: nM
qualifier_symbol: =
IC50: 15100

compound: COc1ccc(-c2[nH]c3ccc(C4CCN(C(=O)CNC56CC7CC(CC(C7)C5)C6)CC4)cc3c2C(C)C)cc1OC [Example 217]
measurement_units: nM
qualifier_symbol: =
IC50: 2130

compound: COc1ccc(-c2[nH]c3ccc(C4CCN(Cc5cncn5C)CC4)cc3c2C(C)C)cc1OC [Example 258]
measurement_units: nM
qualifier_symbol: =
IC50: 1440

compound: COc1ccc(-c2[nH]c3ccc(C4CCN(C(=O)CNC5(CO)CCCC5)CC4)cc3c2C(C)C)cc1OC [Example 213]
measurement_units: nM
qualifier_symbol: =
IC50: 2070

compound: COc1ccc(-c2[nH]c3ccc(C4CCN(C(=O)CCC(=O)N(C)C)CC4)cc3c2CC(F)(F)F)cc1OC [Example 346]
measurement_units: nM
qualifier_symbol: =
IC50: 2940

compound: CCc1c(-c2ccc(OC)c(OC)c2)[nH]c2ccc(C3CCN(C4CCN(Cc5ccc(-c6ccccc6)o5)CC4)CC3)cc12 [Example 143]
measurement_units: nM
qualifier_symbol: =
IC50: 730

compound: COc1ccc(-c2[nH]c3ccc(C4CCN(CC(=O)N5CCC[C@@H]5CO)CC4)cc3c2CC(F)(F)F)cc1OC [Example 371]
measurement_units: nM
qualifier_symbol: =
IC50: 2460

compound: COc1ccc(-c2[nH]c3ccc(C4CCN(C(=O)CNCC(F)(F)F)CC4)cc3c2C(C)C)cc1OC [Example 221]
measurement_units: nM
qualifier_symbol: ≥
IC50: 50000

compound: COc1ccc(-c2[nH]c3ccc(C4CCN(Cc5ccc(N(C)C)c6ccccc56)CC4)cc3c2C)cc1OC [Example 19]
measurement_units: nM
qualifier_symbol: =
IC50: 2550

compound: CCN1CCC(N2CCC(c3ccc4[nH]c(-c5ccc(OC)c(OC)c5)c(C)c4c3)CC2)CC1 [Example 44]
measurement_units: nM
qualifier_symbol: =
IC50: 301

compound: COc1ccc(-c2[nH]c3ccc(C4CCN(C(=O)Cc5cccnc5)CC4)cc3c2CC(F)(F)F)cc1OC [Example 335]
measurement_units: nM
qualifier_symbol: =
IC50: 15300

compound: COc1ccc(-c2[nH]c3ccc(C4CCN(C(=O)CNC[C@H](O)CO)CC4)cc3c2C(C)C)cc1OC [Example 235]
measurement_units: nM
qualifier_symbol: =
IC50: 774

compound: COc1ccc(-c2[nH]c3ccc(C4CCN(C5CCCN(CC(C)C)CC5)CC4)cc3c2C)cc1OC (stereo not drawn) [Example 95]
measurement_units: nM
qualifier_symbol: =
IC50: 115

compound: COc1ccc(-c2[nH]c3ccc(C4CCN(Cc5ccc(N(C)C)cc5)CC4)cc3c2C)cc1OC [Example 37]
measurement_units: nM
qualifier_symbol: =
IC50: 637

compound: COc1ccc(-c2[nH]c3ccc(C4CCN(C5CCCN(C)CC5)CC4)cc3c2C)cc1OC (stereo not drawn) [Example 91]
measurement_units: nM
qualifier_symbol: =
IC50: 313

compound: COc1ccc(-c2[nH]c3ccc(C4CCN(CC(=O)N(C)C5CCN(C)C5)CC4)cc3c2CC(F)(F)F)cc1OC (stereo not drawn) [Example 370]
measurement_units: nM
qualifier_symbol: =
IC50: 399

compound: COc1ccc(-c2[nH]c3ccc(C4CCN(CC(=O)NCCC5CCCN5C)CC4)cc3c2CC(F)(F)F)cc1OC (stereo not drawn) [Example 360]
measurement_units: nM
qualifier_symbol: =
IC50: 392

----------
Each entry below carries its reported pIC50.
- measured_target: human TLR7 (Homo sapiens, UniProt Q9NYK1)
- Sequence (Q9NYK1 27-1049): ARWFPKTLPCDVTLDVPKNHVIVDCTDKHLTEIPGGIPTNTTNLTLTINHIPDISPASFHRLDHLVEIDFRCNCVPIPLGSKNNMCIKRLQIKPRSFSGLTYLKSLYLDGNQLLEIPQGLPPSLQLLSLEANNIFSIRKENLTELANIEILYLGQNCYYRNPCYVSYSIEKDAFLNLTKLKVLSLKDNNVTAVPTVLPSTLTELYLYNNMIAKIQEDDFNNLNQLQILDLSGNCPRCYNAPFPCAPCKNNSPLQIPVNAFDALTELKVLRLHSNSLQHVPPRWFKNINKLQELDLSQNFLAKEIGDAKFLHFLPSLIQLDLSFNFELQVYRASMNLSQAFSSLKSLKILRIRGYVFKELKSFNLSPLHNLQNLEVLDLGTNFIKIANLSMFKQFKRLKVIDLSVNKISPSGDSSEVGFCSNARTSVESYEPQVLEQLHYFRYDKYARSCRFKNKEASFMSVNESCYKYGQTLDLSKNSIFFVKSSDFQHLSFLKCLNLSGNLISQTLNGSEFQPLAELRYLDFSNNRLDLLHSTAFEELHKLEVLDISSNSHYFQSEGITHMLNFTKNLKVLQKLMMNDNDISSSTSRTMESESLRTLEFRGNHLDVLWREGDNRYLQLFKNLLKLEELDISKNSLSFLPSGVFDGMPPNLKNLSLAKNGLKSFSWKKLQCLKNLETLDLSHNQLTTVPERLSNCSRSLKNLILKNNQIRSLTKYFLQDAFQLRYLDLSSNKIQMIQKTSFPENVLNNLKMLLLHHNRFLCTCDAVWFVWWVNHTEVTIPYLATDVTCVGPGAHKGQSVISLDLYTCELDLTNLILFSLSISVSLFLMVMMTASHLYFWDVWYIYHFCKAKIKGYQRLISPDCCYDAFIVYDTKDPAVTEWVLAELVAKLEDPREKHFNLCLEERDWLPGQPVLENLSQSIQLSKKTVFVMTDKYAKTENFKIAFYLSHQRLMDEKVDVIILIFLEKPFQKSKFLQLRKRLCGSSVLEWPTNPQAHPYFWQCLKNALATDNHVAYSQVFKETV
- assay_name: TLR7 inhibition reporter assay (HEK-Blue cells, SEAP reporter, gardiquimod stimulation)
- condition_label: HEK-Blue cells overexpressing human TLR7, gardiquimod 7.5 μM
- Experimental: TLR7/8/9 Inhibition Reporter Assays Briefly, cells are seeded into Greiner 384 well plates (15000 cells per well for TLR7, 20,000 for TLR8 and 25,000 for TLR9) and then treated with test compounds in DMSO to yield a final dose response concentration range of 0.05 nM-50 μM. […] The percent inhibition is determined as the % reduction in the HEK-Blue signal present in wells treated with agonist plus DMSO alone compared to wells treated with a known inhibitor.
pIC50: −log10 of the molar value.

compound: COc1ccc(-c2[nH]c3ccc(C4CCN(Cc5ccc(N(C)C)c6ccccc56)CC4)cc3c2C)cc1OC
pIC50: 4.98
--
compound: CCc1c(-c2ccc(OC)c(OC)c2)[nH]c2ccc(C3CCN(C(=O)CNC(CO)CO)CC3)cc12
pIC50: 6.97
--
compound: COc1ccc(-c2[nH]c3ccc(C4CCN(C(=O)COc5cccnc5)CC4)cc3c2CC(F)(F)F)cc1OC
pIC50: 6.54
--
compound: COc1ccc(-c2[nH]c3ccc(C4CCN(C5CCN(C6CCCC(C(F)(F)F)C6)CC5)CC4)cc3c2C)cc1OC (stereo not shown) [Example 73]
pIC50: 5.29
--
compound: COc1ccc(-c2[nH]c3ccc(C4CCN(C5CCCC(N)C5)CC4)cc3c2C)cc1OC (stereo not shown)
pIC50: 6.84
--
compound: COc1ccc(-c2[nH]c3ccc(C4CCN(C5CCCN(C6CCCC6)CC5)CC4)cc3c2C)cc1OC (stereo not shown)
pIC50: 6.04
--
compound: COc1ccc(-c2[nH]c3ccc(C4CCNCC4)cc3c2CC(F)(F)F)cc1OC
pIC50: 7.82
--
compound: COc1ccc(-c2[nH]c3ccc(C4CCNCC4O)cc3c2C(C)C)cc1OC (single isomer, unassigned) [Example 318, 2,2,2-trifluoroacetate]
pIC50: 5.48
--
compound: CCc1c(-c2ccc(OC)c(OC)c2)[nH]c2ccc(C3CCN(C(=O)CN4CCCC(C(=O)O)C4)CC3)cc12 (racemic)
pIC50: 5.05
--
compound: COc1ccc(-c2[nH]c3ccc(C4CCN(C(=O)CN5CCC[C@@H](C(=O)NCC(N)=O)C5)CC4)cc3c2C(C)C)cc1OC
pIC50: 7.51
--
compound: COc1ccc(-c2[nH]c3ccc(C4CCN(CCN(C)CC5CC5)CC4)cc3c2C)cc1OC
pIC50: 6.60
--
compound: COc1ccc(-c2[nH]c3ccc(C4CCN(C(=O)CN(C)C)CC4)cc3c2C(C)C)cc1OC
pIC50: 7.92
--
compound: COc1ccc(-c2[nH]c3ccc(C4CCN(C5CCN(C)CC5)CC4)cc3c2C(C)C)cc1OC
pIC50: 7.00
--
compound: COc1ccc(-c2[nH]c3ccc(C4CCNCC4F)cc3c2C(C)C)cc1OC (single isomer, unassigned) [Example 321]
pIC50: 7.66
--
compound: COc1ccc(-c2[nH]c3ccc(C4CCN(Cc5cnn(C)c5)CC4)cc3c2C(C)C)cc1OC
pIC50: 7.40
--
compound: CCc1c(-c2ccc(OC)c(OC)c2)[nH]c2ccc(C3CCN(C(=O)CN4CCN(C(C)=O)CC4)CC3)cc12
pIC50: 6.31
--
compound: COc1ccc(-c2[nH]c3ccc(C4CCN(C(=O)CN5CCC[C@H](C(=O)N6CC7CNCC7C6)C5)CC4)cc3c2C(C)C)cc1OC (stereo partly shown)
pIC50: 6.69
--
compound: COc1ccc(-c2[nH]c3ccc(C4CCN(CC(=O)NCCS(=O)(=O)O)CC4)cc3c2CC(F)(F)F)cc1OC
pIC50: 6.25
--
compound: COc1ccc(-c2[nH]c3ccc(C4CCN(C(=O)Cc5cccnc5)CC4)cc3c2CC(F)(F)F)cc1OC
pIC50: 6.48
--
compound: CCN1CCC(N2CCC(c3ccc4[nH]c(-c5ccc(OC)c(OC)c5)c(C)c4c3)CC2)CC1
pIC50: 6.33
--
compound: COc1ccc(-c2[nH]c3ccc(C4CCN(C(=O)CNCC(F)(F)F)CC4)cc3c2C(C)C)cc1OC
pIC50: 6.79
--
compound: COc1ccc(-c2[nH]c3ccc(C4CCN(C5CCN(CC6CCCCC6)CC5)CC4)cc3c2C)cc1OC
pIC50: 6.58
